EXPERIMENTAL DETAILS: Stability of pure lycopene isomers in n-hexane during storage at room temperature
Format: physicochemical
CONDITION DESCRIPTION: n-hexane, room temperature, absence of light, 0 days
VALUE TYPE: concentration (% of total isomers) all E

Consider the reported concentration (% of total isomers) all E for these molecules:
CC(C)=CCC/C(C)=C/C=C/C(C)=C/C=C/C(C)=C/C=C/C=C(C)/C=C/C=C(C)/C=C/C=C(\C)CCC=C(C)C	97.6 % of total isomers
CC(C)=CCC\C(C)=C/C=C/C(C)=C/C=C/C(C)=C/C=C/C=C(C)/C=C/C=C(C)/C=C/C=C(\C)CCC=C(C)C	1.1 % of total isomers
CC(C)=CCC/C(C)=C/C=C/C(C)=C\C=C\C(C)=C\C=C\C=C(C)\C=C\C=C(C)\C=C\C=C(/C)CCC=C(C)C	4.4 % of total isomers

Now, please, on to the next molecule.
Look up concentration (% of total isomers) all E: `CC(C)=CCC/C(C)=C/C=C/C(C)=C/C=C/C(C)=C\C=C\C=C(C)\C=C\C=C(C)\C=C\C=C(/C)CCC=C(C)C`
2.4 % of total isomers

====

EXPERIMENTAL DETAILS: Stability of pure lycopene isomers in n-hexane during storage at room temperature
Format: physicochemical
CONDITION DESCRIPTION: n-hexane, room temperature, absence of light, 33 days
concentration (% of total isomers) 13-Z for assorted molecules

Consider the reported concentration (% of total isomers) 13-Z for these molecules:
CC(C)=CCC/C(C)=C/C=C/C(C)=C\C=C\C(C)=C\C=C\C=C(C)\C=C\C=C(C)\C=C\C=C(/C)CCC=C(C)C	10.5 % of total isomers
CC(C)=CCC\C(C)=C/C=C/C(C)=C/C=C/C(C)=C/C=C/C=C(C)/C=C/C=C(C)/C=C/C=C(\C)CCC=C(C)C	2.8 % of total isomers
CC(C)=CCC/C(C)=C/C=C/C(C)=C/C=C/C(C)=C\C=C\C=C(C)\C=C\C=C(C)\C=C\C=C(/C)CCC=C(C)C	16.9 % of total isomers

Now, please, on to the next molecule.
Look up concentration (% of total isomers) 13-Z: `CC(C)=CCC/C(C)=C/C=C/C(C)=C/C=C/C(C)=C/C=C/C=C(C)/C=C/C=C(C)/C=C/C=C(\C)CCC=C(C)C`
15.7 % of total isomers

====

concentration (% of total isomers) x-Z for assorted molecules
EXPERIMENTAL DETAILS: Stability of pure lycopene isomers in n-hexane during storage at room temperature
Assay type: physicochemical
CONDITION DESCRIPTION: n-hexane, room temperature, absence of light, 12 days

CC(C)=CCC/C(C)=C/C=C/C(C)=C/C=C/C(C)=C/C=C/C=C(C)/C=C/C=C(C)/C=C/C=C(\C)CCC=C(C)C [all-E lycopene]	5.6 % of total isomers
CC(C)=CCC\C(C)=C/C=C/C(C)=C/C=C/C(C)=C/C=C/C=C(C)/C=C/C=C(C)/C=C/C=C(\C)CCC=C(C)C [5-Z lycopene]	26.7 % of total isomers
CC(C)=CCC/C(C)=C/C=C/C(C)=C\C=C\C(C)=C\C=C\C=C(C)\C=C\C=C(C)\C=C\C=C(/C)CCC=C(C)C [9-Z lycopene]	15.9 % of total isomers

Look up concentration (% of total isomers) x-Z: CC(C)=CCC/C(C)=C/C=C/C(C)=C/C=C/C(C)=C\C=C\C=C(C)\C=C\C=C(C)\C=C\C=C(/C)CCC=C(C)C [13-Z lycopene]
5.8 % of total isomers

Entry source: patent US8216619B2
